For each entry below, report its half-life value.
experiment: in vitro; conditions: pig, simulated gi fluid, pH 6.8
Where a SMILES comes first, the peptide text is derived from it. Bridges are numbered along the chain shown (N, C = ends). [ ]: non-standard residue; d: D form.

| compound | reported endpoint | readout value |
| --- | --- | --- |
| CC(C)[C@@H](NC(=O)[C@@H]1CSSC[C@@H]2NC(=O)[C@H](Cc3ccc(O)cc3)NC(=O)[C@H](CCC(=O)O)NC(=O)[C@@H]3CSSC[C@H](NC(=O)[C@H](C)NC(=O)[C@@H]4CCCN4C(=O)[C@H](CC(N)=O)NC(=O)[C@H](CSSC[C@H](N)C(=O)N3)NC2=O)C(=O)N[C@@H]([C@@H](C)O)C(=O)NCC(=O)N1)C(N)=O [[D-Val^14]-Linaclotide] (H-CCEYCCNPACTGC[dV]-NH2; disulfide 1-6, 2-10, 5-13) | half-life | > 480 min |
| C[C@@H]1NC(=O)[C@@H]2CCCN2C(=O)[C@H](CC(N)=O)NC(=O)[C@@H]2CSSC[C@H](N)C(=O)N[C@H]3CSSC[C@H](NC1=O)C(=O)N[C@@H]([C@@H](C)O)C(=O)NCC(=O)N[C@H](C(=O)N[C@H](Cc1ccc(O)cc1)C(N)=O)CSSC[C@H](NC(=O)[C@H](Cc1ccc(O)cc1)NC(=O)[C@H](CCC(=O)O)NC3=O)C(=O)N2 [[D-Tyr^14]-Linaclotide] (H-CCEYCCNPACTGC[dY]-NH2; disulfide 1-6, 2-10, 5-13) | half-life | > 480 min |
| C[C@@H]1NC(=O)[C@@H]2CCCN2C(=O)[C@H](CC(N)=O)NC(=O)[C@@H]2CSSC[C@H](N)C(=O)N[C@H]3CSSC[C@H](NC1=O)C(=O)N[C@@H]([C@@H](C)O)C(=O)NCC(=O)N[C@H](C(N)=O)CSSC[C@H](NC(=O)[C@H](Cc1ccc(O)cc1)NC(=O)[C@H](CCC(=O)O)NC3=O)C(=O)N2 [[desTyr^14]-Linaclotide-NH2] (H-CCEYCCNPACTGC-NH2; disulfide 1-6, 2-10, 5-13) | half-life | > 480 min |

Look up half-life for the entries below, preserving their order.
1. C[C@@H]1NC(=O)[C@@H]2CCCN2C(=O)[C@H](CC(N)=O)NC(=O)[C@@H]2CSSC[C@@H]3NC(=O)[C@H](Cc4ccc(O)cc4)NC(=O)[C@@H]4CSSC[C@H](NC(=O)[C@H](Cc5ccc(O)cc5)NC(=O)[C@H](CCC(=O)O)NC(=O)[C@H](CSSC[C@H](NC1=O)C(=O)N[C@@H]([C@@H](C)O)C(=O)NCC(=O)N4)NC3=O)C(=O)N2 [[cyclic]-Linaclotide] (cyclo(ACTGCYCCEYCCNP); disulfide 2-8, 5-11, 7-12)
2. C[C@@H]1NC(=O)[C@@H]2CCCN2C(=O)[C@H](CC(N)=O)NC(=O)[C@@H]2CSSC[C@H](N)C(=O)N[C@H]3CSSC[C@H](NC1=O)C(=O)N[C@@H]([C@@H](C)O)C(=O)NCC(=O)N[C@H](C(=O)N[C@@H](Cc1ccc(O)cc1)C(N)=O)CSSC[C@H](NC(=O)[C@H](Cc1ccc(O)cc1)NC(=O)[C@H](CCC(=O)O)NC3=O)C(=O)N2 [Linaclotide-NH2] (H-CCEYCCNPACTGCY-NH2; disulfide 1-6, 2-10, 5-13)
3. C[C@@H]1NC(=O)[C@@H]2CCCN2C(=O)[C@H](CC(N)=O)NC(=O)[C@@H]2CSSC[C@H](N)C(=O)N[C@H]3CSSC[C@H](NC1=O)C(=O)N[C@@H]([C@@H](C)O)C(=O)NCC(=O)N[C@H](C(=O)N[C@@H](Cc1ccc(O)cc1)C(=O)O)CSSC[C@H](NC(=O)[C@H](Cc1ccc(O)cc1)NC(=O)[C@H](CCC(=O)O)NC3=O)C(=O)N2 [Linaclotide, reference compound] (H-CCEYCCNPACTGCY-OH; disulfide 1-6, 2-10, 5-13 (inferred))

> 480 min
> 480 min
48 min
